- measured target: aggregated Aβ (1-42) peptides (Homo sapiens, UniProt P05067)
- Construct: Synthetic Aβ (1-42) peptide was purchased from Biopeptide, Co LLC; purchased Biopeptide, Co LLC (San Diego, California); host or cells: chemical synthesis
- Sequence (P05067 672-713): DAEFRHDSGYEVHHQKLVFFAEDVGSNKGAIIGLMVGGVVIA
- procedure summary: Fluorescence excitation/emission and fluorescence enhancement of probes bound versus unbound to aggregated Aβ (1-42) peptides
- Type: binding
- reported conditions: probes of FIG. 14; aggregated Aβ(1-42) 5 μM, probe 4 μM, 5% DMSO in nanopure water
measure: Emmax (with Aβ) (nm)
Numbers only, in nm.

// worked examples, Emmax (with Aβ) included
COCCOCCOCCNC(=O)C(C#N)=Cc1ccc2cc(N3CCCCC3)ccc2c1 (mixture of isomers) | 560
CCCC1CCCCN1c1ccc2cc(/C=C(\C#N)C(=O)NCCOCCOCCOC)ccc2c1 (stereo not shown) | 558
COCCOCCOCCNC(=O)/C(C#N)=C/c1ccc2cc(N3CCCCC3C)ccc2c1 (racemic) | 559

With those in mind, consider the next compound.
Retrieve Emmax (with Aβ) measured for CCC1CCCCN1c1ccc2cc(/C=C(\C#N)C(=O)NCCOCCOCCOC)ccc2c1 (racemic) and print it.
567

Every entry's value here was drawn from patent US20250282723A1.
